# Tested on: RARg:RXRa (NR concentration 270 nM, RXRa partner concentration 90 nM)
# experimentalProtocol: PBM binding z-score (relative to random genomic background probes); higher = stronger binding; sequences stand for … in GC…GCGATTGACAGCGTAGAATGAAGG
measurementLabel: PBM binding z-score
Keep the answer to the number alone.

As a guide, the following entries are already answered.
TAGCCTAGGTCATGGGCGAGTATACCACGCGAAC    4.08
TCTGCAAGGTCAACGATGGTCAGCTAATCTGCTA    6.12
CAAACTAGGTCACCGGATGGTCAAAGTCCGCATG    5.82
ACTATTAGTTAAGACGAGGGCAACCGATAGGTTG    0.59
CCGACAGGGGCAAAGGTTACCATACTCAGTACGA    3.95

Inquiry: Tell me the measured PBM binding z-score of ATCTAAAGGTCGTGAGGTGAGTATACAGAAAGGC , please.
Reply text: 4.55

Inquiry: Entry to check: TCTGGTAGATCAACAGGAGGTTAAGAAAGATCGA
Reply text: 0.66

====

# Tested on: PPARg:RXRa IVT, anti-PPARg (NR concentration 270 nM, RXRa partner concentration 90 nM)
# experimentalProtocol: PBM binding z-score (relative to random genomic background probes); higher = stronger binding; sequences stand for … in GC…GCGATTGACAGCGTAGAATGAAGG
Could you label it T if measured PBM binding z-score is 3 or higher, and F otherwise?

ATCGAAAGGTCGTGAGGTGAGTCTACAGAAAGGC    F
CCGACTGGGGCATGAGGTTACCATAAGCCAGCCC    T
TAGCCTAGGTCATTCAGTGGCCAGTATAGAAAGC    F
CTCGAAATGTCGGTTGAGGTGAGTATACGGATAA    F
TAGCCTAGGTCATGGGCCAGTATGCCACGCGAAC    T

Inquiry: Quick check: does CGTCCAAGGTCACTGCTAGGTCAGTGAAAGCATT have PBM binding z-score greater than or equal to 3?
Reply text: T

Inquiry: Same question for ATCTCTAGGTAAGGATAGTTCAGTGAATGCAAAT please.
Reply text: F

====

Measured PBM binding z-score accompanies every entry in the list below.
# System: PPARg:RXRa (NR concentration 180 nM, RXRa partner concentration 90 nM)
# experimentalProtocol: PBM binding z-score (relative to random genomic background probes); higher = stronger binding; sequences stand for … in GC…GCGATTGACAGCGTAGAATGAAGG
# answer = number (no unit)

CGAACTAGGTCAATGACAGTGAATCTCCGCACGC    6.92

Inquiry: Which PBM binding z-score value is on record for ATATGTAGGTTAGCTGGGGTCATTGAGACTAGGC ?
Reply text: 5.52

Inquiry: Same again, this time with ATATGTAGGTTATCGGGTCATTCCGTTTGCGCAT
Reply text: 6.78

Inquiry: For CCTGCTAGATCAATGGTCAGCTAAAGCAGCTCGC then?
Reply text: -0.182

====

# Tested on: RXRa DBDmut IVT, anti-RXR (DBD mutation: RXRa K156A/R161A, NR concentration 90 nM)
# experimentalProtocol: PBM binding z-score (relative to random genomic background probes); higher = stronger binding; sequences stand for … in GC…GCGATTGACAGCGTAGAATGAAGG
Decision: PBM binding z-score >= 1 yields Y, all other cases yield N.

Below are worked cases with known answers.
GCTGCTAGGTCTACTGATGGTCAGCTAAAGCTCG    N
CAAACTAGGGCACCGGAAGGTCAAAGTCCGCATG    N
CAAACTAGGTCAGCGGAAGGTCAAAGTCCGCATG    Y
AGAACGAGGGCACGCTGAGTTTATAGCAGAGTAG    Y
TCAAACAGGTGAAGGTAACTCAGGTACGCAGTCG    Y

Inquiry: Record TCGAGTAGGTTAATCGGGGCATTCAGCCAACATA ; criterion: PBM binding z-score no lower than 1. Met?
Reply text: N

Inquiry: Likewise for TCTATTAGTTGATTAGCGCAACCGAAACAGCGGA ?
Reply text: Y

These measurements were taken from the supplement of paper PMC6555819.
